Biological target: DCN1-UBC12 interaction (Homo sapiens (Human), UniProt Q96GG9)
Sequence (Q96GG9 60-248 limits assumed): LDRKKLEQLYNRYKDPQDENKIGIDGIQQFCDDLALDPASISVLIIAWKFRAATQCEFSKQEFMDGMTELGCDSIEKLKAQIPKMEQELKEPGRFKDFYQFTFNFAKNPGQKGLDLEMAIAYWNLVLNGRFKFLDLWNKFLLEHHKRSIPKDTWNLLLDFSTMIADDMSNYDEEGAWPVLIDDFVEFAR
Test: biochemical
Assay type: binding
Settings: read-out: TR-FRET IC50
Readout Label: IC50

Give the measured IC50 of CC(c1cccc(O)c1)N1CCC(N(Cc2ccccc2)C(=O)Nc2cc(F)cc(C(F)(F)F)c2)CC1 (centres unmarked) .
> 24 µM

Another molecule to check: CCCC(C)N1CCC(N(Cc2ccccc2)C(=O)Nc2ccc(S(=O)(=O)NC(C)=O)cc2)CC1 (centres unmarked)
> 72.1 µM

Entry CCc1ccc(NC(=O)NC2CCN(Cc3ccccc3)CC2)cc1 please
> 67.6 µM

Param item: O=C(Nc1ccn(Cc2ccccn2)n1)NC1CCN(Cc2ccccc2)CC1
> 55.4 µM

// repeat for COc1ccc(C(=O)N2CCC(c3nc4ccccc4s3)CC2)cc1OC and report
> 62.9 µM
